Taken from ChEMBL document CHEMBL1153093.

System: Plasmodium falciparum
Assay: Antimalarial activity against chloroquine-sensitive Plasmodium falciparum 3D7 by giemsa stain
IC50 values, listed per item
observedProperty: IC50 (µM)

{"compound": "CC1=Cc2nc(C)cc3cc(OCc4ccccc4)cc(c23)O1 [CASSIARIN A BENZYL ETHER]", "target": "Plasmodium falciparum", "unitLabel": "µM", "readoutValue": 14.9}
{"compound": "COc1cc2c3c(nc(C)cc3c1)C=C(C)O2 [CASSIARIN A METHYL ETHER]", "target": "Plasmodium falciparum", "unitLabel": "µM", "readoutValue": 3.6}
{"compound": "CC1=Cc2nc(C)cc3cccc(c23)O1 [7-DEHYDROXYCASSIARIN A]", "target": "Plasmodium falciparum", "unitLabel": "µM", "readoutValue": 5.4}
{"compound": "CC(=O)Oc1cc2c3c(nc(C)cc3c1)C=C(C)O2 [ACETYLCASSIARIN A]", "target": "Plasmodium falciparum", "unitLabel": "µM", "readoutValue": 1.2}
{"compound": "CC1=Cc2nc(C)cc3cc(OS(=O)(=O)C(F)(F)F)cc(c23)O1", "target": "Plasmodium falciparum", "unitLabel": "µM", "readoutValue": 0.41}
{"compound": "COC(=O)CCCn1c(C)cc2cc(=O)cc3oc(C)cc1c23 [CASSIARIN B]", "target": "Plasmodium falciparum", "unitLabel": "µM", "readoutValue": 22}
{"compound": "CCCCOc1cc2c3c(nc(C)cc3c1)C=C(C)O2 [CASSIARIN A BUTYL ETHER]", "target": "Plasmodium falciparum", "unitLabel": "µM", "readoutValue": 3}
{"compound": "CC1=Cc2nc(C)cc3cc(O)cc(c23)O1 [CASSIARIN A]", "target": "Plasmodium falciparum", "unitLabel": "µM", "readoutValue": 0.023}
{"compound": "Cc1cc2c3c(cc(C)n2-c2ccccc2)cc(=O)cc3o1", "target": "Plasmodium falciparum", "unitLabel": "µM", "readoutValue": 0.09}
{"compound": "CCCCn1c(C)cc2cc(=O)cc3oc(C)cc1c23", "target": "Plasmodium falciparum", "unitLabel": "µM", "readoutValue": 4.2}
{"compound": "CCCC(=O)Oc1cc2c3c(nc(C)cc3c1)C=C(C)O2 [BUTYROYLCASSIARIN A]", "target": "Plasmodium falciparum", "unitLabel": "µM", "readoutValue": 4.1}
{"compound": "Cc1cc2c3c(cc(C)n2C)cc(=O)cc3o1", "target": "Plasmodium falciparum", "unitLabel": "µM", "readoutValue": 23.3}
{"compound": "CC1=Cc2nc(C)cc3cc(OC(=O)c4ccccc4)cc(c23)O1 [BENZOYLCASSIARIN A]", "target": "Plasmodium falciparum", "unitLabel": "µM", "readoutValue": 1.2}

---

Ratio IC50 values, listed per item
Experiment: Selectivity index, ratio of IC50 for human MCF7 to IC50 for chloroquine-sensitive Plasmodium falciparum 3D7

{"molecule": "CCCC(=O)Oc1cc2c3c(nc(C)cc3c1)C=C(C)O2", "Ratio IC50": "> 24"}
{"molecule": "CC1=Cc2nc(C)cc3cccc(c23)O1 [7-DEHYDROXYCASSIARIN A]", "Ratio IC50": "> 18"}
{"molecule": "COC(=O)CCCn1c(C)cc2cc(=O)cc3oc(C)cc1c23", "Ratio IC50": "> 4.5"}
{"molecule": "CC(=O)Oc1cc2c3c(nc(C)cc3c1)C=C(C)O2", "Ratio IC50": "> 83"}
{"molecule": "CC1=Cc2nc(C)cc3cc(OC(=O)c4ccccc4)cc(c23)O1", "Ratio IC50": "> 83"}
{"molecule": "CCCCn1c(C)cc2cc(=O)cc3oc(C)cc1c23", "Ratio IC50": "> 23"}
{"molecule": "Cc1cc2c3c(cc(C)n2C)cc(=O)cc3o1", "Ratio IC50": "> 4.2"}
{"molecule": "COc1cc2c3c(nc(C)cc3c1)C=C(C)O2", "Ratio IC50": "> 24"}
{"molecule": "CCCCOc1cc2c3c(nc(C)cc3c1)C=C(C)O2", "Ratio IC50": "> 26"}
{"molecule": "CC1=Cc2nc(C)cc3cc(OS(=O)(=O)C(F)(F)F)cc(c23)O1", "Ratio IC50": "> 244"}
{"molecule": "CC1=Cc2nc(C)cc3cc(O)cc(c23)O1", "Ratio IC50": "> 4350"}
{"molecule": "CC1=Cc2nc(C)cc3cc(OCc4ccccc4)cc(c23)O1", "Ratio IC50": 4.8}
{"molecule": "Cc1cc2c3c(cc(C)n2-c2ccccc2)cc(=O)cc3o1", "Ratio IC50": "> 1110"}

---

System: Aorta
Test: Vasorelaxant activity in Wistar rat endothelium-intact thoracic aortic rings assessed as inhibition of phenylephrine-induced tissue contraction at 30 uM
Type: functional, tissue-based
Active and inactive are the calls of the source. The calls are words filed in the database; no cut-off is given here.
Outcome codes: true (1) = active, false (0) = inactive

{"compound": "CCCCn1c(C)cc2cc(=O)cc3oc(C)cc1c23", "group": "false (0)"}
{"compound": "CC1=Cc2nc(C)cc3cc(O)cc(c23)O1 [CASSIARIN A]", "group": "true (1)"}
{"compound": "CCCC(=O)Oc1cc2c3c(nc(C)cc3c1)C=C(C)O2 [BUTYROYLCASSIARIN A]", "group": "true (1)"}
{"compound": "Cc1cc2c3c(cc(C)n2-c2ccccc2)cc(=O)cc3o1", "group": "false (0)"}
{"compound": "Cc1cc2c3c(cc(C)n2C)cc(=O)cc3o1", "group": "false (0)"}
{"compound": "COc1cc2c3c(nc(C)cc3c1)C=C(C)O2 [CASSIARIN A METHYL ETHER]", "group": "true (1)"}
{"compound": "COC(=O)CCCn1c(C)cc2cc(=O)cc3oc(C)cc1c23 [CASSIARIN B]", "group": "false (0)"}
